Origin of the recorded values: patent US20090269406A1

# PROTOCOL SUMMARY: Effect of heparin-binding peptides on cellular viability (CellTiter 96 AQueous colorimetric metabolic assay)
# ASSAY CONDITIONS: mouse, 3T3 fibroblasts
Peptide text beside a SMILES is read from it. * marks the point of attachment. Dansyl = CN(C)c1cccc2c(S(=O)(=O)*)cccc12
READOUT: CC50 at 1 h
Quick note: unit goes after the number.

Any idea what CC50 at 1 h was measured for CC(C)C[C@H](NC(=O)[C@H](CCCCN)NC(=O)[C@H](C)NC(=O)[C@H](Cc1ccccc1)NC(=O)[C@H](C)NC(=O)[C@H](CCCCN)NC(=O)CNS(=O)(=O)c1cccc2c(N(C)C)cccc12)C(=O)N[C@@H](C)C(=O)N[C@@H](C)C(=O)N[C@@H](CCCNC(=N)N)C(=O)N[C@@H](CC(C)C)C(=O)N[C@@H](Cc1ccc(O)cc1)C(=O)N[C@@H](CCCNC(=N)N)C(=O)N[C@@H](CCCCN)C(=O)N[C@@H](C)C(=O)NCC(=O)N[C@@H](CS)C(=O)O [dG-PBD1, dansyl-GKAFAKLAARLYRKAGC] (Dansyl-GKAFAKLAARLYRKAGC-OH) ? 19.3 µM
